Recorded Microsome CLint, one value per entry.
Assay: Determination of CLint in mouse microsomes (microsomal stability)
Format: in vitro ADME
Conditions: female CD-1 mouse microsomes
Measured quantity: Microsome CLint (µL/min/mg)

| Smiles notation | Measured quantity | Measured number |
| --- | --- | --- |
| CNC(=O)c1cc(Oc2ccc3nc(N[C@@H]4CCCC[C@H]4O)sc3c2)ccn1 | Microsome CLint | 20.5 |
| O=C(O)c1cc(-c2ccc(F)cc2F)ccc1O | Microsome CLint | 17.8 |
| N#Cc1c[nH]c2c(C(=O)N3CCN(CCc4ccc(F)cc4)CC3)cccc12 | Microsome CLint | 212.8 |
| COc1cccc(OCCCN)c1-c1cc(Nc2cnc(C#N)cn2)n[nH]1 | Microsome CLint | 165.3 |

---

Recorded Kinetic solubility PBS pH 7.4, one value per entry.
Test: Kinetic solubility
Format: physicochemical

| Molecule | Value comparator | Kinetic solubility PBS pH 7.4, µM |
| --- | --- | --- |
| O=C(O)c1cc(-c2ccc(F)cc2F)ccc1O [MSC001] | > | 200 |
| N#Cc1c[nH]c2c(C(=O)N3CCN(CCc4ccc(F)cc4)CC3)cccc12 [MSC213] | = | 105.1 |
| COc1cccc(OCCCN)c1-c1cc(Nc2cnc(C#N)cn2)n[nH]1 [MSC020] | = | 165.4 |
| CNC(=O)c1cc(Oc2ccc3nc(N[C@@H]4CCCC[C@H]4O)sc3c2)ccn1 [MSC003] | = | 156.7 |

---

Recorded fu,hep, one value per entry.
Experiment: Unbound fraction in the hepatocyte incubation (fu,hep) by rapid equilibrium dialysis
Assay type: in vitro ADME, mouse
Conditions: experimental unbound fraction in hepatocyte incubation

| Compound | fu,hep, % |
| --- | --- |
| N#Cc1c[nH]c2c(C(=O)N3CCN(CCc4ccc(F)cc4)CC3)cccc12 [MSC213] | 87.81 |
| CNC(=O)c1cc(Oc2ccc3nc(N[C@@H]4CCCC[C@H]4O)sc3c2)ccn1 [MSC003] | 100.00 |
| COc1cccc(OCCCN)c1-c1cc(Nc2cnc(C#N)cn2)n[nH]1 [MSC020] | 91.30 |
| O=C(O)c1cc(-c2ccc(F)cc2F)ccc1O [MSC001] | 97.45 |

---

Assay: Determination of CLint in mouse hepatocytes (hepatocyte stability)
Type: in vitro ADME
Settings: female CD-1 mouse hepatocytes
Experimental: Hepatocyte stability was assessed, as described previously, on a liquid handling platform (Hamilton Microlab Vantage, Bonaduz, Switzerland) using cryopreserved pooled female CD-1 mouse hepatocytes in suspension. Viability was determined in a Neubauer chamber by trypan blue staining and was always above 70%. […] The samples were analyzed by UHPLC-MS/MS (for details, see the Supplementary Materials). […]
Recorded Hepatocyte CLint, one value per entry.

| Compound | Unit string | Hepatocyte CLint |
| --- | --- | --- |
| COc1cccc(OCCCN)c1-c1cc(Nc2cnc(C#N)cn2)n[nH]1 [MSC020] | µl/min/1e6 cells | 70.5 |
| O=C(O)c1cc(-c2ccc(F)cc2F)ccc1O [MSC001] | µl/min/1e6 cells | 11.9 |
| N#Cc1c[nH]c2c(C(=O)N3CCN(CCc4ccc(F)cc4)CC3)cccc12 [MSC213] | µl/min/1e6 cells | 222.1 |
| CNC(=O)c1cc(Oc2ccc3nc(N[C@@H]4CCCC[C@H]4O)sc3c2)ccn1 [MSC003] | µl/min/1e6 cells | 16.5 |
